# target or system: DNA-PK(h) (Homo sapiens)
# procedure details: Evaluation of inhibitory activity against DNA-PK (HTRF kinase assay, GST-cMyc-p53 substrate)
# Assay type: biochemical
# recorded conditions: compound concentration 0.01 μM; read-out: EXP_VALUE(% Inhibition) DNA-PK(h) 0.01 μM
recorded metric: inhibition at 0.01 µM (%)

Answered examples (4):
C[C@H](Nc1ncnc2[nH]ccc(=O)c12)c1c(Cl)c2cccc(-c3ncon3)c2c(=O)n1-c1ccccc1 [Example 351]	45
Cc1ncc(-c2cccc3c(Cl)c([C@H](C)Nc4ncnc5[nH]ccc(=O)c45)n(-c4ccccc4)c(=O)c23)cn1 [Example 136]	75
C[C@H](Nc1ncnc2[nH]ccc(=O)c12)c1c(Cl)c2cccc(-c3ccc(-c4ccccc4)cc3)c2c(=O)n1-c1ccccc1 [Example 254]	40
COc1cnc(-c2cccc3c(Cl)c([C@H](C)Nc4ncnc5[nH]ccc(=O)c45)n(-c4ccccc4)c(=O)c23)cn1 [Example 221]	27

a: C[C@H](Nc1ncnc2[nH]ccc(=O)c12)c1c(Cl)c2cccc(-c3ccc(-c4nccs4)cc3)c2c(=O)n1-c1ccccc1 [Example 29]
b: C[C@H](Nc1ncnc2[nH]ccc(=O)c12)c1c(Cl)c2cccc(C#Cc3cccs3)c2c(=O)n1-c1ccccc1 [Example 304]
c: CC(Oc1cccc2c(Cl)c([C@H](C)Nc3ncnc4[nH]ccc(=O)c34)n(-c3ccccc3)c(=O)c12)c1ccncc1 (stereo partly shown) [Example 368]
### Prompt Order the 3 compounds from highest to lowest inhibition at 0.01 µM. The response must list the labels following the requested ordering.
### Response a, c, b

* * *

# target or system: PI3K-δ (PI3K(p1108/p857) (h)) (Homo sapiens, UniProt O00329)
# Sequence (O00329 whole entry): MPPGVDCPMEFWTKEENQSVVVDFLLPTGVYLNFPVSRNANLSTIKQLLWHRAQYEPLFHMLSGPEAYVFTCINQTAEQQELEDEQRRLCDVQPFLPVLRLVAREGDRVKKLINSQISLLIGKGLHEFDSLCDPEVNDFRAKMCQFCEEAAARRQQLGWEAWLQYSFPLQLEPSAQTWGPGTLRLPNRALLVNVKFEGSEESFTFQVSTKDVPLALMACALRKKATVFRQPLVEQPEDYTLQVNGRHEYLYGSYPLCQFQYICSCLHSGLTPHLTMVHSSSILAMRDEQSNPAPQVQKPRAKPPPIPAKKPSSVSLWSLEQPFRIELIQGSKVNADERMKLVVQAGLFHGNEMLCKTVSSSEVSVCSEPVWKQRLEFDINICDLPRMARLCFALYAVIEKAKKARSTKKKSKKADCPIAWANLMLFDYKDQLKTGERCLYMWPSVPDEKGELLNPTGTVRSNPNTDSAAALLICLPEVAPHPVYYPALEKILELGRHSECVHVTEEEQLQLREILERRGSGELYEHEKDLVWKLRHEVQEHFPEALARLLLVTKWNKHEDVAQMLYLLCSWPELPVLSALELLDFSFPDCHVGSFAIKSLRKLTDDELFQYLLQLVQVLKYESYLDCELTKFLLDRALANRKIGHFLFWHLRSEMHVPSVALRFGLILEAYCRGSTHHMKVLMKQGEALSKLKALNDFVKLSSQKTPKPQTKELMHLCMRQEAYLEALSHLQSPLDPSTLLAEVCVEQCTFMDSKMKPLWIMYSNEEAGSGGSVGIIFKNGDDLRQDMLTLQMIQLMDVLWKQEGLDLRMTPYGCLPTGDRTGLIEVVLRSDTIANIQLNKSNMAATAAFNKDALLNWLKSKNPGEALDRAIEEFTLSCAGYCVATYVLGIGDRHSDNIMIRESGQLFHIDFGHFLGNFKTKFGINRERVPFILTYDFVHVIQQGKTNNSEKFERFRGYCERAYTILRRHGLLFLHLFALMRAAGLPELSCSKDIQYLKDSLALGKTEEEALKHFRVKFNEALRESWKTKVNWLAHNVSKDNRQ
# Sequence (P27986 whole entry partner): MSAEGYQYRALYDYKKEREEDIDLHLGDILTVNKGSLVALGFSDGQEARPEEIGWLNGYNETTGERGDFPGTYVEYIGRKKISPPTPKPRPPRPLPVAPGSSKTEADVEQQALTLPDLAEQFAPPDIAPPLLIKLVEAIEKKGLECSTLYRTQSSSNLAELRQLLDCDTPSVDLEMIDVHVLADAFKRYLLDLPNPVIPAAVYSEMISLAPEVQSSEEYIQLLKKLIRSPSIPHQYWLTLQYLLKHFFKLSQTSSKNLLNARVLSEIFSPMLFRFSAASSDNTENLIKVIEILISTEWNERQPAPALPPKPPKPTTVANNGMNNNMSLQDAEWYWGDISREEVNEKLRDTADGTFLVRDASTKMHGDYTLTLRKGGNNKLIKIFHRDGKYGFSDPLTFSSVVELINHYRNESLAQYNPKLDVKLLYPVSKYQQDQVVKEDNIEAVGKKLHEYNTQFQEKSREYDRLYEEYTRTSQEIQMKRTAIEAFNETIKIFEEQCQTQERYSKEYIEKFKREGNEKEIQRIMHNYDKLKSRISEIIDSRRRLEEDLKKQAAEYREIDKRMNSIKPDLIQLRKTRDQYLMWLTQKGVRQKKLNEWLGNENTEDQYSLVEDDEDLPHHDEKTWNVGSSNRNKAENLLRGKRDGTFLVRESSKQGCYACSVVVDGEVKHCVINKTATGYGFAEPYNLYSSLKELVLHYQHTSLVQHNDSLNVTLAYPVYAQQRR
# procedure details: Evaluation of inhibitory activity against PI3K-δ (HTRF kinase assay)
# Type: biochemical
# recorded conditions: compound concentration 0.01 μM; read-out: EXP_VALUE(% Inhibition) PI3K-δ 0.01 μM
recorded metric: inhibition at 0.01 µM (%)

Answered examples (7):
C[C@H](Nc1ncnc2[nH]ccc(=O)c12)c1c(Cl)c2cccc(C(=O)N3CCOCC3)c2c(=O)n1-c1ccccc1	52
C[C@H](Nc1ncnc2[nH]ccc(=O)c12)c1c(Cl)c2cccc(Nc3ccccn3)c2c(=O)n1-c1ccccc1	5
C[C@H](Nc1ncnc2[nH]ccc(=O)c12)c1c(Cl)c2cccc(C3=NC(C)(C)CO3)c2c(=O)n1-c1ccccc1	10
C[C@H](Nc1ncnc2[nH]ccc(=O)c12)c1c(Cl)c2cccc(-c3cc4[nH]ncc4cn3)c2c(=O)n1-c1ccccc1	76
C[C@H](Nc1ncnc2[nH]ccc(=O)c12)c1c(Cl)c2cccc(-c3ccc(Cl)cc3)c2c(=O)n1-c1ccccc1	49
Cc1cc(-c2cccc3c(Cl)c([C@H](C)Nc4ncnc5[nH]ccc(=O)c45)n(-c4ccccc4)c(=O)c23)cc(C)c1O	74
C[C@H](Nc1ncnc2[nH]ccc(=O)c12)c1c(Cl)c2cccc(-c3cc(F)cc(Cl)c3)c2c(=O)n1-c1ccccc1	63

P: COc1ncc(-c2cccc3c(Cl)c([C@H](C)Nc4ncnc5[nH]ccc(=O)c45)n(-c4ccccc4)c(=O)c23)nc1OC
Q: COc1cc(-c2cccc3c(Cl)c([C@H](C)Nc4ncnc5[nH]ccc(=O)c45)n(-c4ccccc4)c(=O)c23)ccn1
### Prompt Of P and Q , whose reported inhibition at 0.01 µM is numerically smaller? Respond using the label that marks the chosen record.
### Response P

Recorded values, source patent US20230072683A1.
